- Target Or System: Bcl-2 protein (Recombinant Human Bcl-2 Protein) (Homo sapiens)
- Construct: purchased Novus NBP2-34889
- Experimental Protocol: Binding evaluation of mixture library compounds to Bcl-2 using AS-MS (affinity selection mass spectrometry)
- Experimental Conditions: n = 1
Measured Parameter: ASMS ratio (%)

[
  {
    "Smiles String": "CCOc1cccc(-c2ccc(CN3CCN(c4ccc(C(=O)NS(=O)(=O)c5ccc(NCCSc6ccccc6)c(C(F)(F)F)c5)nn4)CC3)c(CC)c2)c1",
    "Value Units": "%",
    "ASMS ratio (%)": 8.6
  },
  {
    "Smiles String": "CCOc1cccc(-c2cc(CN3CCN(c4ccc(C(=O)NS(=O)(=O)CCC(F)(F)F)nn4)CC3)cc(OC(C)C)c2)c1",
    "Value Units": "%",
    "ASMS ratio (%)": 0.0
  }
]

A. CCOc1cccc(-c2cc(OC)c(CN3CCN(c4ccc(C(=O)NS(=O)(=O)c5ccc(NCCSc6ccccc6)c(C(F)(F)F)c5)cc4)CC3)c(OC)c2)c1
B. CCOc1cncc(-c2ccc(C(=O)N3CCN(c4ccc(C(=O)NS(=O)(=O)c5ccc(NCCSc6ccccc6)c(C(F)(F)F)c5)cc4)CC3)cc2C)c1
Between the entries labeled A and B , whose measured ASMS ratio (%) is lower? // caller expects the label of the chosen entry
A
(A: 0.0%, B: 1.7%)

A. CCOc1cncc(C#Cc2ccccc2CN2CCN(c3ccc(C(=O)NS(=O)(=O)C(C)(C)C)nn3)CC2)c1
B. CCOc1cccc(-c2cc(CN3CCN(c4ccc(C(=O)NS(=O)(=O)CCC(F)(F)F)cc4)CC3)cc(OC(F)(F)F)c2)c1
C. CCOc1cncc(C#Cc2ccccc2CN2CCN(c3ccc(C(=O)NS(=O)(=O)C(C)(C)C)cc3)CC2)c1
Order by ASMS ratio (%), ascending. // format: requested-order list of labels
B, A, C
(B: −0.3%, A: 0.0%, C: 4.9%)

P. CCOc1cccc(-c2ccc(CN3CCN(c4ccc(C(=O)NS(=O)(=O)CCC(F)(F)F)nn4)CC3)cc2C)c1
Q. CCOc1cccc(-c2cc(C(=O)N3CCN(c4ccc(C(=O)NS(=O)(=O)c5ccc(NCCSc6ccccc6)c(C(F)(F)F)c5)cc4)CC3)cc(C(C)(C)C)c2)c1
Between the entries labeled P and Q , whose measured ASMS ratio (%) is lower? // caller expects the label of the chosen entry
P

----------
- Target Or System: Bcl-2 protein (Recombinant Human Bcl-2 Protein) (Homo sapiens, UniProt P10415)
- Construct: purchased Novus NBP2-34889
- Sequence (P10415 whole entry): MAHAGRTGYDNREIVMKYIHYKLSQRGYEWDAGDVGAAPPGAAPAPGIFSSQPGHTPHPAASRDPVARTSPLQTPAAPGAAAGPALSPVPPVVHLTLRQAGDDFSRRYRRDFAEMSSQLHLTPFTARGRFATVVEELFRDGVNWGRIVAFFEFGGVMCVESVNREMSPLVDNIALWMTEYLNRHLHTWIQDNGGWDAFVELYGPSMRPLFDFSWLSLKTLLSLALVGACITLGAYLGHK
- Experimental Protocol: Binding evaluation of mixture library compounds to Bcl-2 using AS-MS (affinity selection mass spectrometry)
- Experimental Conditions: AS-MS, mixture library, Bcl-2; replicate n = 2; ASMS Ratio(%)=(A−C)/B×100
Measured Parameter: ASMS ratio (%) n = 2

[
  {
    "Smiles String": "CCOc1cccc(-c2cc(OC)c(CN3CCN(c4ccc(C(=O)N(CC)CC)nn4)CC3)c(OC)c2)c1",
    "Target Or System": "Bcl-2 protein (Recombinant Human Bcl-2 Protein) (Homo sapiens, UniProt P10415)",
    "Numeric Readout": 2.8
  }
]

a. CCOc1cncc(-c2cc(C(=O)N3CCN(c4ccc(C(=O)NS(=O)(=O)CC56CC7CC(CC(C7)C5)C6)cc4)CC3)cc(C(C)(C)C)c2)c1
b. CCOc1cccc(-c2cnn(-c3cc(C(=O)N4CCN(c5ccc(C(=O)NS(=O)(=O)CC67CC8CC(CC(C8)C6)C7)nn5)CC4)cc(C(F)(F)F)c3)c2)c1
Between the entries labeled a and b , whose measured ASMS ratio (%) n = 2 is lower? // caller expects the label of the chosen entry
a

Just for reference, patent US20240132431A1 is where these values come from.
